Test system: Gli-responsive luciferase reporter cells, SUFU pathway antagonism
TEST DETAILS: Gli-SUFU pathway antagonists, dose response, cell-based, luciferase luminescence, uHTS hits (AID 602464)
Calls of active or inactive are those of the source. Rule as the data show it: active = IC50 below about 20 µM; inactive = the rest.
Select the matching outcome among active, inactive

In: Write down the call the test reported for this compound. Item: CCCN(CCC)CCNC(=O)c1cc2c(=O)n(C)c3ccccc3c2n1C
Out: inactive

Next:
In: Write down the call the test reported for this compound. Item: Cc1nnsc1C(=O)NC1CCCc2c1cnn2-c1ccc(F)cc1F (stereo unspecified)
Out: active

In: Write down the call the test reported for this compound. Item: COc1cc(C(=O)NC2CCN(C)CC2)ccc1Nc1ncc2c(n1)N(C1CCCCC1)CCC(=O)N2C
Out: active

---

Tested on: Gli-responsive luciferase reporter cells, SUFU pathway antagonism
TEST DETAILS: Gli-SUFU pathway antagonists, dose response, cell-based, luciferase luminescence, uHTS hits (AID 602464); in the data active = IC50 below about 20 µM; inactive = the rest
Select the matching outcome among active, inactive

In: Write down the call the test reported for this molecule. Item: CC(C)(C)OC(=O)NCCCCCc1cn(CC(=O)NCCCCCCCCCCC(=O)N2CCN(C(=O)OC(C)(C)C)CC2)nn1
Out: active

In: Write down the call the test reported for this molecule. Item: CN(CCOc1ccc(Cl)cc1)C(=O)c1cccc(S(=O)(=O)N2CCN(c3ccc(F)cc3)CC2)c1
Out: active

In: Write down the call the test reported for this molecule. Item: Cc1cc(C)c(C)c(S(=O)(=O)N2CCN(c3ncnc4ccccc34)CC2)c1C
Out: active

---

Tested on: Gli-responsive luciferase reporter cells, SUFU pathway antagonism
TEST DETAILS: Gli-SUFU pathway antagonists, dose response, cell-based, luciferase luminescence, uHTS hits (AID 602464)
Activity calls are given as the source filed them. Rule as the data show it: active = IC50 below about 20 µM; inactive = the rest.
Select the matching outcome among active, inactive

Worked cases, answers included:
In: Write down the call the test reported for this molecule. Item: CC(C)C[C@H]1CN=C(N(C)C)N1CCCCc1ccccc1
Out: active

In: Write down the call the test reported for this molecule. Item: CCOC(=O)c1c(NC(=O)C(=O)N/N=C/c2ccccc2O)sc2c1CCCCC2
Out: active

In: Write down the call the test reported for this molecule. Item: COc1ccc(Nc2nc(N3CCOCC3)nc(N3CCOCC3)n2)c(OC)c1
Out: inactive

Next:
In: Write down the call the test reported for this molecule. Item: COc1ccc(CN(C)C(=O)c2cccc(NC(=O)CC3SC(N4CCCCC4)=NC3=O)c2)c(OC)c1 (centres undefined)
Out: active

---

Tested on: Gli-responsive luciferase reporter cells, SUFU pathway antagonism
TEST DETAILS: Gli-SUFU pathway antagonists, dose response, cell-based, luciferase luminescence, uHTS hits (AID 602464)
Active and inactive are the calls of the source. Cut-off read from the data, not from the text of the source: active = IC50 below about 20 µM; inactive = the rest.
Select the matching outcome among TRUE (active), FALSE (inactive)

Worked cases, answers included:
In: Write down the call the test reported for this compound. Item: CCCCCn1c(=N)n(CC(O)COc2ccccc2OC)c2ccccc21 (configuration not stated)
Out: TRUE

In: Write down the call the test reported for this compound. Item: COc1ccc(NS(=O)(=O)c2cccc(NC(=O)c3ccc(S(=O)(=O)N4CCCCCC4)cc3)c2)cc1
Out: TRUE

In: Write down the call the test reported for this compound. Item: CC(=O)c1c(C)[nH]c(C(=O)OCC(=O)Nc2ccc(C)cc2[N+](=O)[O-])c1C
Out: TRUE

Next:
In: Write down the call the test reported for this compound. Item: CCCCCCn1c(=O)c(C(=O)Nc2cnccn2)c(O)c2ccccc21
Out: TRUE

In: Write down the call the test reported for this compound. Item: CCOC(=O)N1CCN(C(=O)c2ccc(CSc3ccc(Cl)cc3)cc2)CC1
Out: TRUE

In: Write down the call the test reported for this compound. Item: O=C(NCCc1cccc(Cl)c1)c1ccc(OC2CCN(Cc3ccccn3)CC2)cc1
Out: TRUE

In: Write down the call the test reported for this compound. Item: CC(C)Cn1c(N)c(C(=O)COC(=O)C2Cc3ccccc3CN2S(C)(=O)=O)c(=O)n(C)c1=O (configuration not stated)
Out: FALSE

In: Write down the call the test reported for this compound. Item: Cc1ccc(S(=O)(=O)NCCC2=CCCCC2)cc1C(N)=O
Out: TRUE

In: Write down the call the test reported for this compound. Item: Cn1c(=O)c2c(nc(NCc3ccco3)n2Cc2ccc(Cl)cc2Cl)n(C)c1=O
Out: TRUE

In: Write down the call the test reported for this compound. Item: CCn1cc[n+](C)c1P(c1ccccc1)c1ccccc1
Out: TRUE

In: Write down the call the test reported for this compound. Item: CCc1ccccc1NC(=S)N=Nc1c(O)n(C)c2ccc(S(=O)(=O)N3CCOCC3)cc12
Out: TRUE

In: Write down the call the test reported for this compound. Item: Cc1nc2ncccn2c1-c1csc(Nc2ccc(O)cc2)n1
Out: TRUE

In: Write down the call the test reported for this compound. Item: CCc1cc(C(=O)NC2CCCN(Cc3ccccc3F)C2)n(C)n1 (configuration not stated)
Out: TRUE

In: Write down the call the test reported for this compound. Item: C=CCOc1nc2c(c(=O)n(C)c(=O)n2C)n1Cc1ccc(Cl)cc1Cl
Out: TRUE

In: Write down the call the test reported for this compound. Item: Cc1ccc(-c2csc(NC(=O)c3c(C)noc3C)n2)s1
Out: TRUE

In: Write down the call the test reported for this compound. Item: Cc1nc2ccccc2n1CC(=O)NC(C)C1CC2CCC1C2 (configuration not stated)
Out: TRUE

In: Write down the call the test reported for this compound. Item: CC(=O)c1cn(Cc2ccccc2F)c2ccccc12
Out: TRUE

In: Write down the call the test reported for this compound. Item: CCOc1ccc(NC(=S)NNc2ccnc3cc(Cl)ccc23)cc1
Out: TRUE

In: Write down the call the test reported for this compound. Item: COCCOc1nc2c(c(=O)n(C)c(=O)n2C)n1Cc1cccc(OC)c1
Out: TRUE

In: Write down the call the test reported for this compound. Item: O=C(NC(c1cccnc1)C(F)(F)F)c1cc(COc2ccc3c(c2)CCCC3)on1 (configuration not stated)
Out: TRUE

In: Write down the call the test reported for this compound. Item: CC(=O)c1ccc(-n2cc(-c3ccc(C(C)(C)C)cc3)[n+]3c2SCCC3)cc1
Out: TRUE

In: Write down the call the test reported for this compound. Item: CC(C)(C)c1ccc(C(=O)NC(=S)Nc2ccc(N3CCOCC3)cc2)cc1
Out: TRUE

---

Test system: Gli-responsive luciferase reporter cells, SUFU pathway antagonism
TEST DETAILS: Gli-SUFU pathway antagonists, dose response, cell-based, luciferase luminescence, uHTS hits (AID 602464)
Active and inactive are the calls of the source. No stated cut-off is given here; in the data, active means IC50 below about 20 µM; inactive means the rest.
Select the matching outcome among Yes (active), No (inactive)

In: Write down the call the test reported for this molecule. Item: COc1ccc(-n2c(-c3ccc(Cl)cc3)c[n+]3c2CCc2ccccc2-3)cc1
Out: Yes

Next:
In: Write down the call the test reported for this molecule. Item: Cc1ccc(NC(=O)/C=C/c2ccco2)cc1S(=O)(=O)N1CCCCCC1
Out: Yes

In: Write down the call the test reported for this molecule. Item: CCCn1c(SCC(=O)Nc2nc(-c3ccc(OC)cc3)cs2)nc2c1c(=O)n(C)c(=O)n2C
Out: No

---

System: Gli-responsive luciferase reporter cells, SUFU pathway antagonism
TEST DETAILS: Gli-SUFU pathway antagonists, dose response, cell-based, luciferase luminescence, uHTS hits (AID 602464)
Calls of active or inactive are those of the source. No stated cut-off is given here; in the data, active means IC50 below about 20 µM; inactive means the rest.
Select the matching outcome among active, inactive

In: Write down the call the test reported for this compound. Item: O=C(C[C@H]1C/C=C\C[C@H](NC(=O)OCC2c3ccccc3-c3ccccc32)C(=O)OC[C@@H]2CCCN2C1=O)N[C@H](CO)Cc1ccccc1
Out: inactive

---

Tested on: Gli-responsive luciferase reporter cells, SUFU pathway antagonism
TEST DETAILS: Gli-SUFU pathway antagonists, dose response, cell-based, luciferase luminescence, uHTS hits (AID 602464)
Active and inactive are the calls of the source. Rule as the data show it: active = IC50 below about 20 µM; inactive = the rest.
Select the matching outcome among True (active), False (inactive)

Worked cases, answers included:
In: Write down the call the test reported for this compound. Item: CCOC(=O)CSc1c(-c2cccs2)[nH]c2ccccc12
Out: True

In: Write down the call the test reported for this compound. Item: COc1ccc(-c2c(C#N)c(N)nc3c2CCc2ccccc2-3)cc1OC
Out: True

In: Write down the call the test reported for this compound. Item: CCn1c(/C=C/Nc2ccccc2)[n+](CC)c2ccc(Cl)cc21
Out: True

In: Write down the call the test reported for this compound. Item: O=C(N[C@H]1C/C=C\C[C@@H](CC(=O)N(CCO)Cc2ccccc2)C(=O)N[C@H](Cc2c[nH]c3ccccc23)COC1=O)OCC1c2ccccc2-c2ccccc21
Out: True

In: Write down the call the test reported for this compound. Item: COc1ccc(CNc2ncnc3c2[nH]c2ccccc23)cc1
Out: True

Next:
In: Write down the call the test reported for this compound. Item: O=C(COC(=O)c1ccc2[nH]c3c(c2c1)CCCC3)Nc1ccccc1Cl
Out: False

In: Write down the call the test reported for this compound. Item: FC(F)(F)c1ccc(N2CCN(c3cc(-c4ccccc4)nc4ncnn34)CC2)nc1
Out: True

In: Write down the call the test reported for this compound. Item: COc1ccccc1C(=O)NC(=S)/C=C1/N(C)c2ccccc2C1(C)C
Out: True

In: Write down the call the test reported for this compound. Item: Cc1cc(-c2ccccc2)cc(-c2ccccc2)[n+]1C
Out: True
